Data credit: ChEMBL document CHEMBL1144351

IC50, UniProt:Q13255: measured values
Sequence (Q13255 whole entry): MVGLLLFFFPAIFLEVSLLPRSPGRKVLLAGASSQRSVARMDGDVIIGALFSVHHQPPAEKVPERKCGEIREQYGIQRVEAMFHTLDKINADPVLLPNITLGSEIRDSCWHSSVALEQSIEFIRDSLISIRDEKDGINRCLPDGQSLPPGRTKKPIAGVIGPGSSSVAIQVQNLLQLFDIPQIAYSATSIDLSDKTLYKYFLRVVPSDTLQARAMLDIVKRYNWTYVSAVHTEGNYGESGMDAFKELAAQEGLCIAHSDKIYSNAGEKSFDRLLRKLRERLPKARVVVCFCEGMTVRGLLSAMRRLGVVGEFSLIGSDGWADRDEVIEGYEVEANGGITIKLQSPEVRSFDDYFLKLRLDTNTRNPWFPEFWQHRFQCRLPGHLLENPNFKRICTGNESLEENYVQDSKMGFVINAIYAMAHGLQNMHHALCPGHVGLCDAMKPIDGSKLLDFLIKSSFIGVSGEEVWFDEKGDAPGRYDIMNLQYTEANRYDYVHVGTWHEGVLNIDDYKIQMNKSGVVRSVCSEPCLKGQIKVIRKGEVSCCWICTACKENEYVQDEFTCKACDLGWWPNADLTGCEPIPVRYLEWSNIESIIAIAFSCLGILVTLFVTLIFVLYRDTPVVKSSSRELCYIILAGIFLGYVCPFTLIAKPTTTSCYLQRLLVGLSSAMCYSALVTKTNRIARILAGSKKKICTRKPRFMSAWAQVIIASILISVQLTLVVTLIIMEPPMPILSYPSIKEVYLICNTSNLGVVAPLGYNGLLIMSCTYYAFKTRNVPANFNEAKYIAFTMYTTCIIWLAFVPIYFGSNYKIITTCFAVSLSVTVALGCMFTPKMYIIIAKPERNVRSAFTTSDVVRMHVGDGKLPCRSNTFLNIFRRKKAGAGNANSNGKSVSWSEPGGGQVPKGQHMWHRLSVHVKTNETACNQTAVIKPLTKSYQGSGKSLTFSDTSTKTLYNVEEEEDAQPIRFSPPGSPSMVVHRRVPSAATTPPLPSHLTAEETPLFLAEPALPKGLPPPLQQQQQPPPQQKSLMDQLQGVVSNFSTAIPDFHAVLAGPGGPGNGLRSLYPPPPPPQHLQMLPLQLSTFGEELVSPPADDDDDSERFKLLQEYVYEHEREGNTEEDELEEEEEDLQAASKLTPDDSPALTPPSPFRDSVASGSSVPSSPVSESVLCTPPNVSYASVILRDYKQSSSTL
ENDPOINT: IC50 (µM)

INSERT INTO assay_data (compound, endpoint, unit_text, observed_result) VALUES
  ('CCc1cc2cc(C(=O)[C@H]3CC[C@@H](OC)CC3)ccc2n2nnnc12', 'IC50', 'µM', 0.45),
  ('O=C(CCc1ccccc1)c1ccc2nc3c(cc2c1)CCCO3', 'IC50', 'µM', 0.16),
  ('CCCc1ccc2cc(C(=O)[C@H]3CC[C@@H](OC)CC3)ccc2n1', 'IC50', 'µM', 0.003),
  ('O=C(Cc1ccsc1)c1ccc2nc3c(cc2c1)CCCO3', 'IC50', 'µM', 0.074),
  ('CCc1cc2cc(C(=O)C3CCC(O)CC3)ccc2nc1C (stereo unspecified)', 'IC50', 'µM', 0.08),
  ('CO[C@H]1CC[C@@H](C(=O)c2ccc3nc4c(cc3c2)CCC4)CC1', 'IC50', 'µM', 0.00056);

[a] CCc1cc2cc(C(=O)Cc3ccccc3)ccc2nc1C
[b] CCc1cc2cc(C(=O)C3CCC(OC)CC3)ccc2nc1CC (stereo in doubt; cis)
[c] CO[C@H]1CC[C@@H](C(=O)c2ccc3nc4c(cc3c2)CCCO4)CC1 (stereo in doubt; form 1)
[d] CO[C@H]1CC[C@@H](C(=O)c2ccc3nc4c(cc3c2)CCCCC4)CC1
Exercise: Reorder: IC50, max to min. The reply should contain the labels ordered as requested.
Solution: a, d, b, c

====

pIC50, Metabotropic glutamate receptor 1 (Rattus norvegicus, UniProt P23385): measured values
pIC50: −log10 of the molar value.
ENDPOINT: pIC50

Worked examples, 3 compounds total:
INSERT INTO assay_data (cpd_smiles, tested_system, endpoint, observed_result) VALUES
  ('CCc1cc2cc(C(=O)CCc3ccccc3)ccc2nc1C', 'Metabotropic glutamate receptor 1 (Rattus norvegicus, UniProt P23385)', 'pIC50', 6.64),
  ('CCc1cc2cc(C(=O)[C@H]3CC[C@@H](OC)CC3)ccc2n2nnnc12', 'Metabotropic glutamate receptor 1 (Rattus norvegicus, UniProt P23385)', 'pIC50', 7.35),
  ('O=C(CCc1ccccc1)c1ccc2nc3c(cc2c1)CCCO3', 'Metabotropic glutamate receptor 1 (Rattus norvegicus, UniProt P23385)', 'pIC50', 7.07);

[P] CCc1cc2cc(C(=O)Cc3ccc(N(C)C)cc3)ccc2nc1C
[Q] O=C(Cc1ccsc1)c1ccc2nc3c(cc2c1)CCCO3
Exercise: Please let me know which one, P or Q , has a lower measured pIC50 value. Refer to your chosen entry by its label in the reply.
Solution: P

====

IC50, Metabotropic glutamate receptor 1 (Rattus norvegicus): measured values
ENDPOINT: IC50 (µM)

INSERT INTO measurements (cpd_smiles, unit_text, observed_result) VALUES
  ('C[C@H]1CC[C@@H](C(=O)c2ccc3nc4c(cc3c2)CCCCC4)CC1', 'µM', 0.125);

[A] CCc1cc2cc(C(=O)C34CC5CC(CC(C5)C3)C4)ccc2nc1C
[B] CO[C@H]1CC[C@@H](C(=O)c2ccc3nc4c(cc3c2)CCS4)CC1
[C] CO[C@H]1CC[C@@H](C(=O)c2ccc3nc4c(cc3c2)CCCCC4)CC1
Exercise: Reorder: IC50, max to min. The reply should contain the labels ordered as requested.
Solution: A, C, B
(A: 0.126 µM, C: 0.08 µM, B: 0.002 µM)
